This collection of values is drawn from ChEMBL document CHEMBL3351921.

Exercise: for every item that follows, state its recorded pIC50.
Target: Prostaglandin D2 receptor 2 (Homo sapiens, UniProt Q9Y5Y4)
Sequence (Q9Y5Y4 whole entry): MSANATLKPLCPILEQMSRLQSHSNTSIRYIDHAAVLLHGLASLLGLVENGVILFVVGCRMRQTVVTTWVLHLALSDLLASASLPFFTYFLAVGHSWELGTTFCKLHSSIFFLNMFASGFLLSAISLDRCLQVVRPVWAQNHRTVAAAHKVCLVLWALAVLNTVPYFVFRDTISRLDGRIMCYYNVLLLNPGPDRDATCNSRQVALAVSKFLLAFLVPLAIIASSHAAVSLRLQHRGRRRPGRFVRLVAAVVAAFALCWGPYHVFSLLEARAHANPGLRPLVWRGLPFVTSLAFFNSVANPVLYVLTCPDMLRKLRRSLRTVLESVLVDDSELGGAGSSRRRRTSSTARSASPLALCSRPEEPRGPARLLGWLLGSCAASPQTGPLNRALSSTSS
Method Notes: Antagonist activity at CRTh2 (unknown origin) stably expressed in PGD2-stimulated CHO.K1 cells preincubated for 1 hr by radio-labelled [35S]-GTPgammaS binding assay
Type: functional, cell-based
Give bare numbers, as −log10 of the molar value.

Provide each entry's pIC50 from the list below.
1. COc1ccc(S(=O)(=O)c2ccc(F)cc2)c(Cc2c3c(n(CC(=O)O)c2C)CC(C)(C)NC3=O)c1
2. Cc1c(Cc2ccc(S(=O)(=O)c3ccccc3)cc2)c2c(n1CC(=O)O)CCNC2=O
3. Cc1c(Cc2ccccc2S(=O)(=O)c2ccccc2)c2c(=O)n(C(F)F)ccc2n1CC(=O)O
4. Cc1c(Cc2ccccc2C(O)c2ccccc2)c2c(n1CC(=O)O)CCNC2=O (stereo not given)
5. CCS(=O)(=O)c1ccccc1Cc1c2c(n(CC(=O)O)c1C)CCNC2=O

1: 8.30; 2: 6.77; 3: 8.66; 4: 7.49; 5: 6.26
